This collection of values is drawn from ChEMBL document CHEMBL3039007.

Task for the reader: assign each of the following compounds its reported residual activity.
Target: Solute carrier organic anion transporter family member 1B3 (Homo sapiens, UniProt Q9NPD5)
Sequence (Q9NPD5 whole entry): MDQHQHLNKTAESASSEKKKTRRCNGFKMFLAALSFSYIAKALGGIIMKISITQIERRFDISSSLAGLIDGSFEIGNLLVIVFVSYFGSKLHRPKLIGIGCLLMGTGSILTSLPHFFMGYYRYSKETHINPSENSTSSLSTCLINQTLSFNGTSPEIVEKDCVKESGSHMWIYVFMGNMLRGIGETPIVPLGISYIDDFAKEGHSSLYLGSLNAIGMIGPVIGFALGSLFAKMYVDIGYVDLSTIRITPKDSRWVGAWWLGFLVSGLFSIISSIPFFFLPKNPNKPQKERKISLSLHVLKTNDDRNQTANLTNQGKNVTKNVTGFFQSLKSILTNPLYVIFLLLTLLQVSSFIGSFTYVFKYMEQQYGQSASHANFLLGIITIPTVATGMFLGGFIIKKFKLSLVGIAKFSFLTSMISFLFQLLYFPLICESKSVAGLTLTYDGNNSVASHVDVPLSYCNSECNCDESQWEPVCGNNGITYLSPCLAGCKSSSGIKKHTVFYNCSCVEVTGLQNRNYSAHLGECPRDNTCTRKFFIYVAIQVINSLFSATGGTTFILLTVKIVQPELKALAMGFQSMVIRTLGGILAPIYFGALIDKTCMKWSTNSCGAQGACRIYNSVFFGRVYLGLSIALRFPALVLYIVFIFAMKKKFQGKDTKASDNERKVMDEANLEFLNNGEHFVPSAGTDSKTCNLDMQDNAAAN
Details: chinese hamster, cho, 10 µM
Give just the number in %; leave the unit off.

Observed residual activity on Solute carrier organic anion transporter family member 1B3 (Homo sapiens, UniProt Q9NPD5) for COC(=O)c1c(OC)cc2c(c1C)Oc1c(Cl)c(O)c(Cl)c(C)c1C(=O)O2 , please.
15.01

Now consider C#CCCCCCCCCCCCC(O)CC(O)CO (centres undefined) and answer again.
124.3

What do you get for COC(=O)[C@@]1(C)CCC[C@]2(C)c3ccc(O)c(C(C)C)c3CC[C@@H]12 ?
122.1

And the next one, O=C(O)CCCCCCCCCCCC[C@@H]1C=CCC1 ?
82.39

What would you report for OC[C@H]1O[C@@H](O[C@@H]2[C@@H](CO)O[C@](O)(CO)[C@H]2O)[C@H](O)[C@@H](O)[C@H]1O ?
104.9

Check Cc1cccc2c3c(ccc12)C1=C(C(=O)C3=O)[C@@H](C)CO1 [DIHYDROTANSHINONE I] too.
129.1

# repeat for O=c1ccc2ccccc2o1
99.05

Another compound to check: CC(=O)c1ccc(O)c(CC=C(C)C)c1 [3-PRENYL-4-HYDROXYACETOPHENONE]
99.32

Subsequent entry: Cl.FC(F)(F)c1cccc(N2CCNCC2)c1
80.23

Try this compound next: CC[C@H](/C=C/[C@@H](C)[C@H]1CC[C@H]2[C@@H]3CCC4=CC(=O)CC[C@]4(C)[C@H]3CC[C@]12C)C(C)C
88.84

Further, for CC1(C)C(=O)C=C[C@]2(C)[C@H]3CC[C@@]4(C)[C@H](c5ccoc5)OC(=O)[C@H]5O[C@]54[C@]3(C)[C@H](O)C[C@@H]12 ?
60.92

Please do the same for Nc1ccc(C(=O)O)cc1 as well.
88.18

Now the compound CNC(=O)Oc1cccc2c1OC(C)(C)C2
111.1

Also O=C(O)c1cccnc1Nc1cccc(C(F)(F)F)c1 , if possible.
83.73

Repeat with Cc1ncc([N+](=O)[O-])n1CCO
98.27

And then O=C(/C=C(\O)c1ccccc1)c1ccccc1O [2',beta-DIHYDROXYCHALCONE] , what is it?
97.75

Also COC(=O)CCCOc1ccc(Cl)cc1Cl ?
115.5

Now the same for CC(=O)O[C@@H]1C[C@H]2C(C)(C)C(=O)C=C[C@]2(C)[C@H]2CC[C@@]3(C)[C@H](c4ccoc4)OC(=O)[C@H]4O[C@]43[C@@]21C
105.4

Request: Nc1ccc(S(=O)(=O)Nc2ccc(Cl)nn2)cc1
95.19
